Measured IC50 GM-CSF, TF-1 proliferation values are reported for all entries that follow.
target-or-test-system: T1, human CD131 (human, UniProt P32927 17-897)
T1 sequence: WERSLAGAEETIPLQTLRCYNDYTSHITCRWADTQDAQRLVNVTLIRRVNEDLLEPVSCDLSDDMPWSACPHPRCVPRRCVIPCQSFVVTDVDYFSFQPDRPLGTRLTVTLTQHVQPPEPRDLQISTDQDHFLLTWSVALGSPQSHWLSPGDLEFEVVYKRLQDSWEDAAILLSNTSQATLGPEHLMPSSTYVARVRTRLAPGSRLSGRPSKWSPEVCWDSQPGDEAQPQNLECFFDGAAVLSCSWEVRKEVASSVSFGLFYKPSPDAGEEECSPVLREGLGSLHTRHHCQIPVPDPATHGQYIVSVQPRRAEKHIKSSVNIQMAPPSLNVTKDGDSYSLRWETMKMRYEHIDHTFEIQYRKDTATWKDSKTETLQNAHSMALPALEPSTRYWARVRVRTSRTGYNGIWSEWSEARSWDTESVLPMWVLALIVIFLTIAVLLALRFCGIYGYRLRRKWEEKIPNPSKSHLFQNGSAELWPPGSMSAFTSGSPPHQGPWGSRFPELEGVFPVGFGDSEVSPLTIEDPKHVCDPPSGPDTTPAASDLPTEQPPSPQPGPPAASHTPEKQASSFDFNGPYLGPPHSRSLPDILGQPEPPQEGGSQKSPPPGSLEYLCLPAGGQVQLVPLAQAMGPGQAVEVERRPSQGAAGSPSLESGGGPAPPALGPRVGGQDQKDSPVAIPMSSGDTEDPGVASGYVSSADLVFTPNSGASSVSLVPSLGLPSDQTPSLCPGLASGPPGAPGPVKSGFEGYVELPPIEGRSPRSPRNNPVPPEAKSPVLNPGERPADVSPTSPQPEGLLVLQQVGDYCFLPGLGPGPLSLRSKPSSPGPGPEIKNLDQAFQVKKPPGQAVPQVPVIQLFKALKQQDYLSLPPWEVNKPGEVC
test-name: cell-based or functional assay
Answer format: numeric, nM implied, no suffix.

IN: Which value of IC50 GM-CSF, TF-1 proliferation has been reported for 9A2-VR31 (antibody, V domains shown) VH: EVQLLESGGGLVQPGGSLRLSCAASGFTFSHYHMLWVRQAPGKGLEWVSSISGAQWSTYYADSVKGRFTISRDNSKNTLYLQMNSLRAEDTAVYYCARFYDSFFDIWGQGTMVTVSS VL: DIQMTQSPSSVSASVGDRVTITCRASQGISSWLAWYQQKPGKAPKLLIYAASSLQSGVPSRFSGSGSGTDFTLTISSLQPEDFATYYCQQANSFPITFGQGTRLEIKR in the records?
OUT: 233

IN: Which value of IC50 GM-CSF, TF-1 proliferation has been reported for 9A2-VR46 (antibody, V domains shown) VH: EVQLLESGGGLVQPGGSLRLSCAASGFTFSHYHMLWVRQAPGKGLEWVSSIRSSGGFTYYADSVKGRFTISRDNSKNTLYLQMNSLRAEDTAVYYCARFYSDHFREWGQGTMVTVSS VL: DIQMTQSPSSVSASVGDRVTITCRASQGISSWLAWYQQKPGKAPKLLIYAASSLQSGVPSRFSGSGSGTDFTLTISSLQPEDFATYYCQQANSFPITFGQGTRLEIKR in the records?
OUT: 23.4

Taken from patent US20190062438A1.
